IC50 values for the compounds below.
molecular target: IRAK4 (Homo sapiens (Human)); assay: IRAK4 Inhibition Assay; format: biochemical; details: IRAK4 Inhibition Assay; ATP 500 μM; read-out: IRAK4 IC50
Sequence (Q9NWZ3 whole entry, species assumed): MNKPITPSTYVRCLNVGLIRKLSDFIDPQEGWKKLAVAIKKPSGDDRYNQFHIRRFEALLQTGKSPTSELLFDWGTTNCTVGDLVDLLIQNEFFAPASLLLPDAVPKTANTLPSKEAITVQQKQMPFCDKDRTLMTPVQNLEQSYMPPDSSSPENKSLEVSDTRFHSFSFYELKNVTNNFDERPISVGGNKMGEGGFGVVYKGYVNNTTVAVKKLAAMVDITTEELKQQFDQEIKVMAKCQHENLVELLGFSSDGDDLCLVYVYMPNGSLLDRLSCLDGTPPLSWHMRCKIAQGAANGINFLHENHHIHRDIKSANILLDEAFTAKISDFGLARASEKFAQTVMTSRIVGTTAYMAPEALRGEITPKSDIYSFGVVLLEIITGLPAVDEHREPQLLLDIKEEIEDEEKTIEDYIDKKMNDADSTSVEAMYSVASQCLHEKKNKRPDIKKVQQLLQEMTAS
measurement-type: IC50 (nM)

{"compound": "CC1(Nc2cc(-n3ccc4cc(C#N)cnc43)ncc2C(=O)NC[C@@H](F)C(C)(C)O)CC1", "value-observed": 1.2}
{"compound": "CS(=O)(=O)[C@H]1CC[C@H](NC(=O)c2cnc(-n3ccc4cc(C#N)cnc43)cc2NC2CCOCC2)CC1", "value-observed": 3.5}
{"compound": "CC(C)Nc1cc(-n2ccc3cc(C#N)cnc32)ncc1C(=O)N[C@H]1CC[C@](F)(c2ccnn2C)CC1", "value-observed": 3.3}
{"compound": "CC(C)(O)[C@H](F)CNC(=O)c1cnc(-n2ncc3cc(F)cnc32)cc1NC1CC1", "value-observed": 9.5}
{"compound": "CC(C)(O)CCNC(=O)c1cnc(-n2ccc3cncnc32)cc1NC1CCOCC1", "value-observed": 6}
{"compound": "CC(C)Nc1cc(-n2ncc3cc(C#N)cnc32)ncc1C(=O)NCC(F)C1(O)COC1 (stereo not drawn) [Example 243]", "value-observed": 5.3}
{"compound": "CC(C)(O)[C@H](F)CNC(=O)c1cnc(-n2ccc3cc(C#N)cnc32)cc1Nc1cccc(S(N)(=O)=O)c1", "value-observed": 1.9}
{"compound": "C[C@@H](CF)Nc1cc(-n2ncc3cc(C#N)cnc32)ncc1C(=O)NC[C@@H](F)C(C)(C)O", "value-observed": 5.2}
{"compound": "CS(=O)(=O)[C@H]1CC[C@H](NC(=O)c2cnc(-n3ccc4cc(C#N)cnc43)cc2NC2CC2)CC1", "value-observed": 1.7}
{"compound": "CC(C)(O)[C@H](F)CNC(=O)c1cnc(-n2ccc3cc(C#N)cnc32)cc1NC1CCC(F)C1 (single isomer, unassigned) [Example 109]", "value-observed": 1}
{"compound": "CC(C)Nc1cc(-n2ncc3cc(C#N)cnc32)ncc1C(=O)NC[C@@H](F)C(C)(C)O [Example 133]", "value-observed": 2.6}
{"compound": "CCNC(=O)c1cnc(-n2ncc3cc(C#N)cnc32)cc1Nc1cnn(CC(F)F)c1", "value-observed": 3.5}
{"compound": "CCCNc1cc(-n2ccc3cc(C#N)cnc32)ncc1C(=O)NC[C@@H](F)C(C)(C)O", "value-observed": 2.1}
{"compound": "COC(C)(C)[C@H](F)CNC(=O)c1cnc(-n2ncc3cc(C#N)cnc32)cc1NC(C)C", "value-observed": 2.8}
{"compound": "CC(=O)N[C@H]1CC[C@H](NC(=O)c2cnc(-n3ccc4cncnc43)cc2NC(C)C)CC1", "value-observed": 9.3}
